- studySystem: Lp-PLA2 (Homo sapiens, UniProt Q13093)
- Sequence (Q13093 22-441): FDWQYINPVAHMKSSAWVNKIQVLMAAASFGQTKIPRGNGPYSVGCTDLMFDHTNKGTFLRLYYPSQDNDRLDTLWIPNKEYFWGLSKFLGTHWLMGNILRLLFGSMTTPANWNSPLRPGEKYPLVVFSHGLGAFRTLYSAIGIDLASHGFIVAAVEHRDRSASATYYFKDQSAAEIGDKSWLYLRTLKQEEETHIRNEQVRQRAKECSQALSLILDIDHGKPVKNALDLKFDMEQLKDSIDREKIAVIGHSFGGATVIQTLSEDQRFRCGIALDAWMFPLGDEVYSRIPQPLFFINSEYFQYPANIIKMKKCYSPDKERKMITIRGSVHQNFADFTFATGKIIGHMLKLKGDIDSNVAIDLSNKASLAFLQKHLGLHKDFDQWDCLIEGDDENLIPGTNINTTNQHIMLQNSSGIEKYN
- runDescription: Inhibitory activity against Lp-PLA2 in human plasma (Thio-PAF assay)
- runConditions: 2-thio-PAF substrate, 30 min pre-incubation
Documented IC50 across a set of compounds
Unit nM implied. Number only.

I would be grateful if you could share the reported IC50 for O=c1nc(OCc2cc(F)c(Oc3ccnc(C(F)(F)F)c3)c(F)c2)cc2n1CC1CCN21 (stereo not shown) .
5.2

Form field: reported IC50 of O=c1nc(OCc2cc(F)c(Oc3ccnc(C(F)(F)F)c3)c(F)c2)cc2n1C[C@H]1CCN21
3.3

Dear colleague, I am looking for the recorded IC50 of the following compound: O=c1nc(OCc2cc(F)c(Oc3ccnc(C(F)(F)F)c3)c(F)c2)cc2n1C[C@@H]1CCN21
52.3

Recorded IC50 of Cc1ccc(COc2cc3n(c(=O)n2)CC2CCN32)cc1 (stereo not shown) , please.
2430

// query IC50 value for entry Cc1ncc(Oc2c(F)cc(COc3cc4n(c(=O)n3)CC3CCN43)cc2F)cn1 (stereo not shown)
25.6

Fill blank: measured IC50 of the compound O=c1nc(OCc2cc(F)c(Oc3ccc(C(F)(F)F)nc3)c(F)c2)cc2n1CC1CCN21 (stereo not shown) is ____.
4.3

* * *

Each item that follows carries a reported CLint scaled at 1 µM.
- runDescription: Liver microsome stability experiment (cynomolgus monkey)
- Type: in vitro ADME
- runConditions: cynomolgus monkey, liver microsomes, pH 7.4, Cynomolgus monkey liver microsomes, 0.5 mg/mL, read-out: CL(liver)
Please give a number only; it is taken to be in mL/min/kg.

COCCN1CCC(N(Cc2ccc(-c3ccc(C(F)(F)F)cc3)cc2)C(=O)Cn2c(SCc3cccc(F)c3F)cc(=O)c3ccccc32)CC1 : 39.8

Then there is this compound:
What value of measured CLint scaled at 1 µM is listed for O=c1nc(OCc2cc(F)c(Oc3ccnc(C(F)(F)F)c3)c(F)c2)cc2n1C[C@H]1CCCN21 [Comparative Example 1, reference compound] ?
28.3

* * *

- runDescription: Liver microsome stability experiment (human)
- Format: in vitro ADME
- runConditions: pH 7.4; Human liver microsomes, 0.5 mg/mL, 1 µM
Measured half-life at 1 µM, listed per entry.
Write the answer as a number in h, unit excluded.

Data request, read-out half-life at 1 µM, for O=c1nc(OCc2cc(F)c(Oc3ccnc(C(F)(F)F)c3)c(F)c2)cc2n1C[C@H]1CCCN21 [Comparative Example 1, reference compound]
2.01

Name the reported half-life at 1 µM value associated with the compound COCCN1CCC(N(Cc2ccc(-c3ccc(C(F)(F)F)cc3)cc2)C(=O)Cn2c(SCc3cccc(F)c3F)cc(=O)c3ccccc32)CC1 [Rilapladib]
0.345

* * *

- runDescription: Liver microsome stability experiment (SD rat)
- Type: in vitro ADME
- runConditions: SD, rat, liver microsomes, pH 7.4, SD rat liver microsomes, 0.5 mg/mL, 1 µM; read-out: CLint(liver)
readoutName: CLint scaled at 1 µM

// known answers, use as guide
O=c1nc(OCc2cc(F)c(Oc3ccnc(C(F)(F)F)c3)c(F)c2)cc2n1C[C@H]1CCN21 : < 13.4 mL/min/kg
COCCN1CCC(N(Cc2ccc(-c3ccc(C(F)(F)F)cc3)cc2)C(=O)Cn2c(SCc3cccc(F)c3F)cc(=O)c3ccccc32)CC1 : < 13.4 mL/min/kg

Shifting focus to the compound that follows.
What CLint scaled at 1 µM value was documented for this compound, O=c1nc(OCc2cc(F)c(Oc3ccnc(C(F)(F)F)c3)c(F)c2)cc2n1C[C@H]1CCCN21 [Comparative Example 1, reference compound] ?
28.7 mL/min/kg

Values from patent EP4748841A1
